# ASSAY_PROCEDURE: yeast display, Sf9 membrane polyspecificity reagent, FACS + sequencing; frameworks hold sequencing errors
MEASURED_METRIC: polyreactivity (PSR sort gate)

Example results:
QVQLVESGGGLVQAGGSLRLSCAASGRTFTVYAMGWYRPAPGKERELVAAISSGGITYYADSVKGRFTISRDNAKNTVYLQMNSLKPEDTAVYYCNTKSGKARYEFGYWGQGTQVTVSS low polyreactivity
QVQLVESGGGLVQAGGSLRLSCAASGSTFPYNAMGWYRQAPGKERELVAAITSSGRTNYADSVKGRFTISRDNAKNTDYLQMNSLKPEDTAVYYCAAVRWYAHRVDYWGQGTQVTVSS low polyreactivity
QVQLVESGGGLVQAGGSLRLSCAASGSTSDINAMGWYRQAPGKERELVAVITDSSNTDYADSVKGRFTISRDNAKNTVYLQMNSLKPEDTADDYCAADRDEPDPYDYWGQGTQVTVSS low polyreactivity
QVQLVESGGGLVQAGGSLRLSCDASGRTFASNVMGWYRQAPGKERELVAAISRRGGSTYYADSVKGRFTISRDNAKNTVYLQMNSLKPEDTAVYYCNADDKAQSDYWGQGTQVTVSS high polyreactivity
QVQLVESGGGLVQAGGSLRLSCAASGITLDRYDMGWYRQAPGKERELVAAISRSGVRTYYADSVKGRFTISRDNAKNTVYLQMNSLKPEDTAVYYCNKGYARRYASGYDYWGQGTQVTVSS high polyreactivity
QVQLVESGGGLVQAGGSLRLSCAASGRIFGEYAMGWYRQAPGKERELVAAISGGGSTYYADSVKGRFTISRDNAKNTVYLQMNSLKPEDTAVFYCAVYSVYHEYDYWGQGTQVTVSS low polyreactivity
QVQLVDSGGGLVQAGGSLRLSCAASGIILVNNAMGWYRQAPGKEREFVAAIRYSAGSTYYADSVKGRFTISRDNAKTTVYLQMNSLKPEDTAVYYCNAVRYPTRGYYPYRYGYWGQGTQVNVSS high polyreactivity
QVQLVESGGGLVQAGGSLRLSCAASGRIFKKNAMGWYRQAPGKERELVAAISARGGSTYYADSVKGRFTISRDNAKNTVYLQMNSLKPEDTAVYYCAADEVDESIHYYTFDYWGQGTQVTVSS high polyreactivity
QVQLVESGGGLVQAGGSLRLSCAASGRTLGANAMGWYRQAPGKERELVAAITDSGGSTYYADSVKGRFTISRDNAKNTVYLQMNSLKPEDTAVYYCAAKQAYSSTYVWPIFDYWGQGTQVTVSS low polyreactivity
QVQLVESGGGLVQAGGSLRLSCAASGSIFYYNAMGWYRQAPGKERELVAAISVSGGSTYYADSVKGRFTISRDNAKNTVYLQMNSLKPEDTAVYYCAAEWLYYYWLPGRADYLEYDYWGQGTQVTVSS low polyreactivity

Please state polyreactivity (PSR sort gate) for every sequence in the list that follows.
1. QVQLVESGGGLVQAGGSLRLSCAASGFIFSSYAMGSYRQAPGKERELVAAISWSGGSTYYADSVKGRFTISRDNAKNTVYLQMKSLKPEDAAVYYCASVTRIFDYWGQGTQVTVSS
2. QVQLEESGGVLVQAGGSLRLTCAAAGSILAYNSMGWYREAPGKERELVAAISWTGRTYYADSVKGRFTISRDNEKNTVYLQMNSLIPEDTAVYYCNARGRQRSRGSQIYDYWGQGTQVTVSS

["high polyreactivity", "high polyreactivity"]

* * *

# ASSAY_PROCEDURE: yeast display, Sf9 membrane polyspecificity reagent, FACS + sequencing; frameworks hold sequencing errors
MEASURED_METRIC: polyreactivity (PSR sort gate)

Example results:
QVQLVESGGGLVQAGGSLRLSCAASGRILTGYAMGLYRQAPGKEREFVASITGSGAITNYADSVKGRFTITRDNAKNTVYLQMNSLKPEDTAVYYCARGYGWWLGYSSRYDYWGQGTQVTVSS high polyreactivity
QVQLVESGGGLVQEGGSLRLSCAASGSTFFTYAMGWYRQAPGKERELVAAISSSGGSTYYADSVKGRFTISRDNAKNTVYLQMNSLIPEDTAVDYCNAKLYLPYDPTDEYDYWGQGTQVTVSS low polyreactivity
QVQLVESGGGLVQAGGSLRLSCAASGSLFYINAMGWYRQAPGKERELVAAITSDGSTYYADSVKGRFTISRDNAKNTVYLQMNSLKPEDTAVYYCAADLTSDQYLYYWYWFYSWGQGTQVTVSS low polyreactivity
QVQLVESGGGLVQAGGSLRLSCAASGLTFGFYARGWYTQAPGKERQLVPRISNGGSTNYADSVKGRFTISRDNAKNTVYLQMNSLKPEDTAVYYCNAGLVLPPPGAYIVYFDQMDYWGQGTQVTVSS low polyreactivity
QVQLVESGGGLVQAGGSLRLSCAASGRTFPYKAMGWYRQAPGKERELVAVISSGGGRTYYADSVKGRFTISRDNAKNTVYLQMNSLKPEDTAVYYCNKGGYAIRYDYYWGQGTQVTVSS high polyreactivity

Please state polyreactivity (PSR sort gate) for every sequence in the list that follows.
1. QVQLVESCGGLFQAGGSLRLSCAPSGRTSWVYAMGWYRQAPAKERELVASIRKRTVVYADSVKGRFTISRENAKNTVYLQMNSLKPEETAVYYCNTDYSSTSQWRAANYWGQGTQVTVSS
2. QVQLVESGGGLVQAGGSLRLSCAASGSIFRLNTMGWYRQAPGKERELVAAIFTSGGSTYADSVKGRFTISRDNAKNTVYLQMNSLKPEDTAVYYCAGMDYWGQGTQVTVSS

["high polyreactivity", "low polyreactivity"]

Please state polyreactivity (PSR sort gate) for every sequence in the list that follows.
1. QVQLLESWGGLVQAGGSLRLSCAASGRTSTRNAMGWYRQAPGNERELVAAISWSGGRTHYADSVKGRFTISRDNAKNTVYLQMNSLKPEDTAVYYCAAAYTGGQKYYSWGQGTEVTVSS
2. QVQLVESVGGLVQAGGSLRLSCAASGRTCGYKAMGWYRQAPGKERQLVAAISRGGSTNYADSVKGRFTISRDNAKNSVYLQMNSLKPEDTAVYYCAKTIRAYRPSRTAYRLDYWGQGTQVTVSS
3. QVQLVESGGGLVQAGGSLRLSCAASGRISRLNAMGWYRQAPGKERELVATISGRGGGTYYADSVKGRFTISRDNAKNTVYLQMNSLKPEDTAVYYCNRRWFTRYDYWGQGTQVTVSS
4. QVQLVESGGGLVQAGGSLRLSCAASGRNSSWNAMGWYRPAPGKERELVAAISVRGGSTYADSVKGRFTISRDNAKNTVSLQMNSLTPADTAVYYCAKTYYPYRLGEGQYEYDYWGQGTQVTVSS
5. QVQLVESGGGLVQAGASLRLSCAASGITFDPNAMGWYRQAPGKERELVAAISTRGGSTYYADSVKGRFTISRDNAKNTVYLQMNSLKPEETAVYYCNALRTGRWFDYWGQGTQVTVSS

["high polyreactivity", "high polyreactivity", "high polyreactivity", "low polyreactivity", "high polyreactivity"]

Please state polyreactivity (PSR sort gate) for every sequence in the list that follows.
1. QVQLVESGGGLVQAGGSLRLSCAASGSIFYKYMGWYRQAPGKERELVAAMTWSGGSTYYADSVKGRFTISRDNAKNTVYLQMNSLKPEDTAVYYCNADDRHSRVGHSWQDAQFDYWGQGTQVTVSS
2. QVQLVESGRGLVQAGGSLRLTGAASGRIFGLYAMGWYRHAPGKERELVAAISRRGGTTYYADSVQGRFTISRDNAKNTVDLQMNSLKPEDTAVYYCAAATVYLSWYYWGQGTQVTVSS
3. QVQLVESGGGLVQAGGSLRLSCAPSGITFWYYAMGWYRQAPGKERELVAAINKSGGRTYYADSVKGRFTISRDNAKNTVYLQMNSLKPEDTAVYYCAAPRSRSRTSRFDYWGQGTQVTVSS
4. QVQLVESGGGLVQAGGSLRLSCAASGRIFSHYAMGWYRQAPGKERELVAAITSDGSTNYADSVKGRFTISRDNAKNTVYLQMNSLKPEDTAVYYCADYDYWGQGTQVTVSS
5. QVQLVESGGGLVQAGGSLRLSCAASGSTFVNYAMGWYRQAPGKERELVAAITRGGRTYYADSVKGRFTISRDNAKNTVYLQMNSLKPEDTAVYYCAARRSYNPAFGYWGQGTQVTVSS
6. QVQLVESGGGLVQAGGSLRLSSAASGRTLIWYTMGWYRPAPGKERELVAAITSGGSTYYADSVKGRFTISRDNAKNTVYLQMNSLKPEDTAVYYCNARSAFWGWGYGSYDYWGQGTQVTVSS
7. QVQLVESGGGLVQAGGSLRLSCAASGGTFQINAMGWYIQAPGKERELVAAISRSGGSTSYADSVKGRFTISRDNAKNTVYLQMNSLKPQDTAVYYCNKRVRATAWYDYWGQGTQVTVSS
8. QVQLVQSGGGLVQAGGSLRLSCAASGFIFDTYTMGWYRQAPGKERQLVAAISRSGASTYYADSVKGRFTISRDNAKNTVYLQMNSLKPEDTAVYYCATVYYPSYRGGYDYWGQGTQVTVSS

high polyreactivity
high polyreactivity
high polyreactivity
low polyreactivity
high polyreactivity
low polyreactivity
high polyreactivity
high polyreactivity

polyreactivity (PSR sort gate) reading for QVQLVESGGGLVQAGGSLRLSCAASGRIYRRNTMGWYRQAPGKERELVAAITSSGGSTYADSVKGRFTISRDNAKNTVYLQMISLKPEDSAVYYCATYVAYHRGYRTYDHWGQGTHVTVSS : low polyreactivity

Reference source: the nanobody polyreactivity screen of Harvey et al. (2022)
